Origin of values: paper PMC11659749

Reported MIC, C. albicans SS5314 (wild type).

compound: CC(=NNC(=N)N)c1nnn(-c2ccc(C#CCC(C)C)cc2)c1C [Compound 20]
inequality_sign: =
MIC (µg/mL): 8
--
compound: CN[C@H](CC(C)C)C(=O)N[C@H]1C(=O)N[C@@H](CC(N)=O)C(=O)N[C@H]2C(=O)N[C@H]3C(=O)N[C@H](C(=O)N[C@H](C(=O)O)c4cc(O)cc(O)c4-c4cc3ccc4O)[C@H](O)c3ccc(c(Cl)c3)Oc3cc2cc(c3O[C@@H]2O[C@H](CO)[C@@H](O)[C@H](O)[C@H]2O[C@H]2C[C@](C)(N)[C@H](O)[C@H](C)O2)Oc2ccc(cc2Cl)[C@H]1O [Vancomycin, reference compound]
inequality_sign: >
MIC (µg/mL): 64
--
compound: CCCCC#Cc1ccc(-n2nnc(C(C)=NNC(=N)N)c2C)cc1 [Compound 21]
inequality_sign: =
MIC (µg/mL): 16
--
compound: OC(Cn1cncn1)(Cn1cncn1)c1ccc(F)cc1F [Fluconazole, reference compound]
inequality_sign: =
MIC (µg/mL): 0.5
--
compound: CCCCCCC#Cc1ccc(-n2nnc(C(C)=NNC(=N)N)c2C)cc1 [Compound 22]
inequality_sign: =
MIC (µg/mL): 64
--
compound: CC(=NNC(=N)N)c1nnn(-c2ccc(C#CC3CC3)cc2)c1C [Compound 24]
inequality_sign: >
MIC (µg/mL): 64
--
compound: CC(=NNC(=N)N)c1nnn(-c2ccc(C#CC3CCCCC3)cc2)c1C [Compound 26]
inequality_sign: =
MIC (µg/mL): 16
--
compound: CCCC#Cc1ccc(-n2nnc(C(C)=NNC(=N)N)c2C)cc1 [Compound 19]
inequality_sign: =
MIC (µg/mL): 16
